From: ChEMBL document CHEMBL5126625

I'd appreciate it if you could supply Papp A→B at 10 µM values for the items below.
Experiment: Apparent permeability of the compound across apical to basolateral side in human Caco-2 cells at 10 uM by LC-MS/MS analysis
One number for each entry, in ×10⁻⁶ cm/s.

>>> result_number("CNCc1ccc(Cl)cc1Cn1c(=S)[nH]c(=O)c2[nH]ccc21")
9.6
>>> result_number("CC(C)NCc1ccccc1Cn1c(=S)[nH]c(=O)c2[nH]ccc21")
12
>>> result_number("O=c1[nH]c(=S)n(Cc2ccccc2CN2CCC2)c2cc[nH]c12")
19
>>> result_number("C[C@H](N)c1cc(Cl)ccc1Cn1c(=S)[nH]c(=O)c2[nH]ccc21")
10
>>> result_number("CNCc1c(Cl)cccc1Cn1c(=S)[nH]c(=O)c2[nH]ccc21")
19
>>> result_number("NCc1cc(Cl)ccc1Cn1c(=S)[nH]c(=O)c2[nH]ccc21")
6

Record Papp A→B at 10 µM per entry; entries follow.
1. CC(=O)NCc1cc(Cl)ccc1Cn1c(=S)[nH]c(=O)c2[nH]ccc21
2. NC(c1ccccc1)c1ccccc1Cn1c(=S)[nH]c(=O)c2[nH]ccc21 (configuration not stated)

1: 11; 2: 18
